- protocol.notes: NCI Yeast Anticancer Drug Screen. Data for the mlh1 rad18 strain (AID 175)
- measurement.setup: S. cerevisiae mlh1 rad18 strain growth inhibition; at 50.0 µM; stronger effect = higher value
About 79,000 compounds went through this panel and 15% of them were active in at least one assay; those are over-represented in the sample as a whole.
reported.metric: growth inhibition (%)
The response must be a number in % with no trailing unit.

Example cases with answers are listed next.
In [3]: df
Out[3]:
                               compound  reading
0                   Nc1ncc2ncn(CCO)c2n1      3.7
1  O=C1CCC(C(=O)O)N1 (stereo not drawn)     -7.8

Would you kindly look at the next entry?
Name the reported growth inhibition value associated with the compound O=C(O)c1ccccc1C(=O)Cc1ccccc1
-9.6

----------
- protocol.notes: NCI Yeast Anticancer Drug Screen. Data for the rad50 strain (AID 155);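 note: 0% = growth of vehicle-only cultures of the same strain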
- measurement.setup: S. cerevisiae rad50 strain growth inhibition; at 50.0 µM; stronger effect = higher value
Compounds without any hit were thinned out: in the full panel of roughly 79,000, 15% have a hit.
// values below are reported growth inhibition
The response must be a number in % with no trailing unit.

Example cases with answers are listed next.
                                   compound  scale_unit  reading
0        CCCNC(=O)c1nc(SC)sc1NC(=O)c1ccccc1           %     10.3
1   CCS(=O)(=O)/C=C(\C(=O)c1ccccc1)c1ccccc1           %     83.1
2  N=c1ccn(CC(O)COc2ccccc2)cc1 (stereo not drawn)           %    -11.8
3     CNC1C(CO)OC(OC)C1O (stereo not drawn)           %     10.8
4  CSCCOC(=O)C1C2CCC(O2)C1C(=O)O (stereo not drawn)           %     11.1

Name the reported growth inhibition value associated with the compound CS(=O)(=O)OCC1OC(n2ccc(NC(=O)c3ccccc3)nc2=O)CC1OS(C)(=O)=O (stereo not drawn)
0.5

Name the reported growth inhibition value associated with the compound CCOC(=O)/C(=C/c1ccc(C#N)cc1)N(CC)CC
-3.95

Name the reported growth inhibition value associated with the compound O/N=C(\c1ccccc1)C1c2ccccc2-c2ccccc21
-10.1

----------
- protocol.notes: NCI Yeast Anticancer Drug Screen. Data for the bub3 strain (AID 167)
- measurement.setup: S. cerevisiae bub3 mutant strain, at 50.0 µM, stronger effect = higher value
This is part of a sample that, as a whole, favours compounds with a hit. Of some 79,000 tested, about 15% had one in any assay.
reported.metric: growth inhibition (%)
The response must be a number in % with no trailing unit.

Example cases with answers are listed next.
>>> df
                                   compound  reading
0                      CCOCCN1CCN(CCOCC)CC1     27.6
1                             Cc1cccc(CN)n1    -5.85
2  CCOC(=O)C1=C(C)N(Cc2ccccc2)C2(O)C1=CC(=O)C(Cl)=C2Cl (configuration not stated)     49.5
3  Clc1ccc(-c2c3nc(c(-c4ccc(Cl)cc4)c4ccc([nH]4)c(-c4ccc(Cl)cc4)c4nc(c(-c5ccc(Cl)cc5)c5ccc2[nH]5)C=C4)C=C3)cc1    -14.3
4   O=C(OCCNC1CCCCC1)c1ccc([N+](=O)[O-])cc1     -4.5
5   Cc1ccccc1S(=O)(=O)NC1c2ccccc2Oc2ccccc21      2.5

Would you kindly look at the next entry?
Name the reported growth inhibition value associated with the compound CC1(C)OC2OC(COC(=O)c3ccc([N+](=O)[O-])cc3)C3OC(C)(C)OC3C2O1 (configuration not stated)
0.85
